System name: cGMP-specific 3',5'-cyclic phosphodiesterase (Homo sapiens, UniProt O76074)
Test protocol: Inhibition of human recombinant PDE5A expressed insect sf9 cells by radiometric assay
pIC50: −log10 of the molar value.
Value type: pIC50

1: CN(C)C(=O)c1cccc(S(=O)(=O)N2CCC[C@H]2C(=O)O[C@@H](Cc2c(Cl)c[n+]([O-])cc2Cl)c2ccc(OC(F)F)c(OCC3CC3)c2)c1 (relative stereo)
2: CN(C)C(=O)c1cccc(S(=O)(=O)N2CCS[C@H]2C(=O)O[C@@H](Cc2c(Cl)c[n+]([O-])cc2Cl)c2ccc(OC(F)F)c(OCC3CC3)c2)c1
Exam item: API: POST /compare with 1 and 2 ; response names the item with higher pIC50. Indicate which entry you chose by stating its label.
Marked response: 2

====

Test protocol: Inhibition of PDE4 in human PBMC assessed as reduction in LPS-induced TNFalpha release after 18 hrs by quantitative ELISA
pIC50: −log10 of the molar value.
Value type: pIC50

A: O=C(O[C@@H](Cc1c(Cl)c[n+]([O-])cc1Cl)c1ccc(OC(F)F)c(OCC2CC2)c1)[C@@H]1SCCN1S(=O)(=O)c1cccnc1 (relative stereo)
B: CNC(=O)c1cc(S(=O)(=O)N2CCS[C@H]2C(=O)O[C@@H](Cc2c(Cl)c[n+]([O-])cc2Cl)c2ccc(OC(F)F)c(OCC3CC3)c2)cn1C (relative stereo)
Exam item: API: POST /compare with A and B ; response names the item with higher pIC50. Indicate which entry you chose by stating its label.
Marked response: B

A: CN(C)C(=O)c1cccc(S(=O)(=O)N2CCC[C@@H]2C(=O)O[C@@H](Cc2c(Cl)c[n+]([O-])cc2Cl)c2ccc(OC(F)F)c(OCC3CC3)c2)c1 (relative stereo)
B: COCCS(=O)(=O)N1CCS[C@H]1C(=O)O[C@@H](Cc1c(Cl)c[n+]([O-])cc1Cl)c1ccc(OC(F)F)c(OCC2CC2)c1 (relative stereo)
C: CN(C)C(=O)c1cccc(S(=O)(=O)N2CCCC[C@H]2C(=O)O[C@@H](Cc2c(Cl)c[n+]([O-])cc2Cl)c2ccc(OC(F)F)c(OCC3CC3)c2)c1 (relative stereo)
D: COc1cc([C@H](Cc2c(Cl)c[n+]([O-])cc2Cl)OC(=O)[C@@H]2SCCN2S(=O)(=O)c2cccc(C(=O)N(C)C)c2)ccc1OC(F)F (relative stereo)
Exam item: Falling order of pIC50, please. Returns: the labels listed in the requested order.
Marked response: C, D, B, A
(C: 10.92, D: 10.49, B: 10.11, A: 9.42)

====

System name: High affinity 3',5'-cyclic-AMP phosphodiesterase 7A (Homo sapiens, UniProt Q13946)
Sequence (Q13946 whole entry): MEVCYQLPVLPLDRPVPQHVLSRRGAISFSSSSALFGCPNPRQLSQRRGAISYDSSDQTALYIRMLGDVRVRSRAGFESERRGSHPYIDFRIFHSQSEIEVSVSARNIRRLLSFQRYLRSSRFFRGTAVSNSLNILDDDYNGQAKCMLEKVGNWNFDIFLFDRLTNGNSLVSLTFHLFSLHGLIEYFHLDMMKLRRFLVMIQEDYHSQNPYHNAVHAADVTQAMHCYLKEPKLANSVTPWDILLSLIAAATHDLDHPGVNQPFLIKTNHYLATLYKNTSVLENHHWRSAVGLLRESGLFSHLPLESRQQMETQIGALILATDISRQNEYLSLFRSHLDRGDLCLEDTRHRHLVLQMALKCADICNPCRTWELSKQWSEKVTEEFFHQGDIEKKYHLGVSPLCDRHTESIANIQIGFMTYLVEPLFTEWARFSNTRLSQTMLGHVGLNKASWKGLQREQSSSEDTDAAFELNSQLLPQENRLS
Test protocol: Inhibition of human recombinant PDE7A expressed insect sf9 cells by radiometric assay
Value type: IC50 (nM)

a: CN(C)C(=O)c1cccc(S(=O)(=O)N2CCS[C@H]2C(=O)O[C@@H](Cc2c(Cl)c[n+]([O-])cc2Cl)c2ccc(OC(F)F)c(OCC3CC3)c2)c1
b: CN(C)C(=O)c1cccc(S(=O)(=O)N2CCC[C@H]2C(=O)O[C@@H](Cc2c(Cl)c[n+]([O-])cc2Cl)c2ccc(OC(F)F)c(OCC3CC3)c2)c1 (relative stereo)
Exam item: Hi there, can you help? I need to know whether a or b has lower measured IC50. Indicate which entry you chose by stating its label.
Marked response: a
(a: 660 nM, b: 3460 nM)

====

Test protocol: Apparent permeability across basolateral to apical side in human Caco2 cells at 10 uM after 2 hrs by LC-MS/MS analysis
Type: ADME, cell-based
Condition description: Caco-2
Value type: Papp B→A at 2 h, 10 µM (×10⁻⁶ cm/s)

COc1ccc(S(=O)(=O)N2CCS[C@H]2C(=O)O[C@@H](Cc2c(Cl)c[n+]([O-])cc2Cl)c2ccc(OC(F)F)c(OCC3CC3)c2)cc1OC (relative stereo); 0.82
CN(C)C(=O)c1cccc(S(=O)(=O)N2CCCC[C@H]2C(=O)O[C@@H](Cc2c(Cl)c[n+]([O-])cc2Cl)c2ccc(OC(F)F)c(OCC3CC3)c2)c1 (relative stereo); 73.4
Cn1cnc(S(=O)(=O)N2CCS[C@H]2C(=O)O[C@@H](Cc2c(Cl)c[n+]([O-])cc2Cl)c2ccc(OC(F)F)c(OCC3CC3)c2)c1; 3.95
COc1ccc(S(=O)(=O)N2CCS[C@H]2C(=O)O[C@@H](Cc2c(Cl)c[n+]([O-])cc2Cl)c2ccc(OC(F)F)c(OCC3CC3)c2)cc1C(=O)N(C)C (relative stereo); 7.67
CN(C)C(=O)c1cccc(S(=O)(=O)N2CCC[C@H]2C(=O)O[C@@H](Cc2c(Cl)c[n+]([O-])cc2Cl)c2ccc(OC(F)F)c(OCC3CC3)c2)c1 (relative stereo); 10.2

1: CNC(=O)c1cc(S(=O)(=O)N2CCS[C@H]2C(=O)O[C@@H](Cc2c(Cl)c[n+]([O-])cc2Cl)c2ccc(OC(F)F)c(OCC3CC3)c2)cn1C (relative stereo)
2: COc1ccc(S(=O)(=O)N2CCC[C@H]2C(=O)O[C@@H](Cc2c(Cl)c[n+]([O-])cc2Cl)c2ccc(OC(F)F)c(OCC3CC3)c2)cc1C(=O)N(C)C (relative stereo)
3: CN(C)C(=O)c1cccc(S(=O)(=O)N2CSC[C@H]2C(=O)O[C@@H](Cc2c(Cl)c[n+]([O-])cc2Cl)c2ccc(OC(F)F)c(OCC3CC3)c2)c1
Exam item: Sort the compounds on Papp B→A at 2 h, 10 µM; start with the lowest figure. Returns: the labels listed in the requested order.
Marked response: 3, 2, 1

1: CN(C)C(=O)c1cccc(S(=O)(=O)N2CCS[C@H]2C(=O)O[C@@H](Cc2c(Cl)c[n+]([O-])cc2Cl)c2ccc(OC(F)F)c(OCC3CC3)c2)c1
2: COc1ccc(S(=O)(=O)N2CCCC[C@H]2C(=O)O[C@@H](Cc2c(Cl)c[n+]([O-])cc2Cl)c2ccc(OC(F)F)c(OCC3CC3)c2)cc1C(=O)N(C)C (relative stereo)
Exam item: API: POST /compare with 1 and 2 ; response names the item with higher Papp B→A at 2 h, 10 µM. Indicate which entry you chose by stating its label.
Marked response: 2
(2: 68.4 ×10⁻⁶ cm/s, 1: 3.18 ×10⁻⁶ cm/s)

====

Test protocol: MRTlast in Sprague-Dawley rat plasma at 1 umol/kg, it administered as micronized powder measured up to 24 hrs post dose by electrospray LC-MS analysis
Type: ADME, cell-free
Condition description: inhaled or intranasal
Value type: MRT last at 24 h (h)

CN(C)C(=O)c1cccc(S(=O)(=O)N2CCS[C@H]2C(=O)O[C@@H](Cc2c(Cl)c[n+]([O-])cc2Cl)c2ccc(OC(F)F)c(OCC3CC3)c2)c1; 1.33
CN(C)C(=O)c1cccc(S(=O)(=O)N2CCC[C@H]2C(=O)O[C@@H](Cc2c(Cl)c[n+]([O-])cc2Cl)c2ccc(OC(F)F)c(OCC3CC3)c2)c1 (relative stereo); 1.08

====

Test protocol: Metabolic stability in human plasma assessed as compound remaining at 1 uM measured after 60 mins in presence of NADPH by LC-MS/MS analysis
Format: ADME, cell-free
Condition description: read-out: Stability
Value type: remaining at 1 h, 1 µM (%)

Cn1cnc(S(=O)(=O)N2CCS[C@H]2C(=O)O[C@@H](Cc2c(Cl)c[n+]([O-])cc2Cl)c2ccc(OC(F)F)c(OCC3CC3)c2)c1; 101
CNC(=O)c1cc(S(=O)(=O)N2CCS[C@H]2C(=O)O[C@@H](Cc2c(Cl)c[n+]([O-])cc2Cl)c2ccc(OC(F)F)c(OCC3CC3)c2)cn1C (relative stereo); 100
CN(C)C(=O)c1cccc(S(=O)(=O)N2CSC[C@H]2C(=O)O[C@@H](Cc2c(Cl)c[n+]([O-])cc2Cl)c2ccc(OC(F)F)c(OCC3CC3)c2)c1; 94
COc1ccc(S(=O)(=O)N2CCC[C@H]2C(=O)O[C@@H](Cc2c(Cl)c[n+]([O-])cc2Cl)c2ccc(OC(F)F)c(OCC3CC3)c2)cc1C(=O)N(C)C (relative stereo); 101
COc1ccc(S(=O)(=O)N2CCCC[C@H]2C(=O)O[C@@H](Cc2c(Cl)c[n+]([O-])cc2Cl)c2ccc(OC(F)F)c(OCC3CC3)c2)cc1C(=O)N(C)C (relative stereo); 88.2
COc1ccc(S(=O)(=O)N2CCS[C@H]2C(=O)O[C@@H](Cc2c(Cl)c[n+]([O-])cc2Cl)c2ccc(OC(F)F)c(OCC3CC3)c2)cc1C(=O)N(C)C (relative stereo); 98.8
CN(C)C(=O)c1cccc(S(=O)(=O)N2CCC[C@H]2C(=O)O[C@@H](Cc2c(Cl)c[n+]([O-])cc2Cl)c2ccc(OC(F)F)c(OCC3CC3)c2)c1 (relative stereo); 108
CN(C)C(=O)c1cccc(S(=O)(=O)N2CCCC[C@H]2C(=O)O[C@@H](Cc2c(Cl)c[n+]([O-])cc2Cl)c2ccc(OC(F)F)c(OCC3CC3)c2)c1 (relative stereo); 104
CN(C)C(=O)c1cccc(S(=O)(=O)N2CCS[C@H]2C(=O)O[C@@H](Cc2c(Cl)c[n+]([O-])cc2Cl)c2ccc(OC(F)F)c(OCC3CC3)c2)c1; 98
COc1ccc(S(=O)(=O)N2CCS[C@H]2C(=O)O[C@@H](Cc2c(Cl)c[n+]([O-])cc2Cl)c2ccc(OC(F)F)c(OCC3CC3)c2)cc1OC (relative stereo); 101
